Below: a set of entries, each annotated with reported MIC.
System: E. coli (B1989/17) isolate from equine urine, E. coli (2)
test_details: MIC, serial microdilution with INT
Assay type: cell-based
measurement_conditions: Escherichia coli, read-out: Minimum inhibitory concentration
measured_parameter: MIC (µg/mL)

molecule: COc1ccc(C2CC(=O)c3c(OC)cc(OC)cc3O2)cc1 (racemic) [Compound 2, (±)-4′,5,7-trimethoxy flavanone]
unit_spec: µg/mL
inequality_operator: =
measurement: 31

molecule: COc1ccc(-c2cc(=O)c3c(O)c(OC)c(O)cc3o2)cc1 [Compound 1, 5,7-dihydroxy-4′,6-dimethoxy-flavone]
unit_spec: µg/mL
inequality_operator: >
measurement: 250

molecule: O=C(O)c1cn(C2CC2)c2cc(N3CCNCC3)c(F)cc2c1=O [Ciprofloxacin, ciprofloxacin, reference compound]
unit_spec: µg/mL
inequality_operator: =
measurement: 0.05
